- Procedure Text: Pharmacokinetic study of Example 3 in mouse (IV, IP)
- Format: in vivo, C57 Mouse
- Test Context: C57, mouse, plasma, ip, 30 mg/kg, 30 mg/kg IP; individual animals 201M-203M; read-out: Tmax
Measured Parameter: Tmax (h)
Supply the numeric figure in h, leaving out any unit text.

get_value(item= Cc1ccc(Nc2nc(N/N=C/c3c[nH]c4ccccc34)cc(N3CCOCC3)n2)cc1 [Example 3] , readout=Tmax) returns 1

---

- Procedure Text: Pharmacokinetic study of Example 1 in mouse (IV, IP, PO)
- Assay type: in vivo, Male C57BL/6 Mouse
- Test Context: male, C57BL/6, mouse, plasma, iv, 5 mg/kg, IV 5 mg/kg; individual mice M1-M3; read-out: MRT0-last
Measured Parameter: MRT last (min)
Supply the numeric figure in min, leaving out any unit text.

get_value(item= `Cc1ccc(Nc2nc(N/N=C/c3c[nH]c4ccccc34)nc(N3CCOCC3)n2)cc1` , readout=MRT last) returns 56.2
